protein stability index listing for selected variants.
B1: CDC14A (parent)
chain: GPHPKSKIENGYPLHAPEAYFPYF

Variants of: B1
Assay: protein stability index of a GFP-peptide fusion (GPS, HEK-293T) (PSI 1-6); higher = more stable;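 note: lentivirally expressed fusions sorted by FACS into six bins by GFP to DsRed ratio, PSI derived from sequencing read proportions per bin multiplied by bin number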
Details: c terminus: a fixed tail appended
Answer with a number only.

Record excerpt, results attached:
S6Q    2.22
I8W    1.77
S6F    2.11
P13S    2.22
P13Y    1.88

Per the records, this variant ( `N10V` ) has protein stability index equal to 2.06

Consider `E18K` . Its measured protein stability index is 2.23

# protein stability index of `H15A` = 2.45

response.value for `H3C` (field: protein stability index) = 2.01

The recorded protein stability index for entry `G1D` equals 2.51
